system.under.test: MyD88^TIR (Homo sapiens, UniProt Q99836)
Construct: MyD88 (residues 148–296); 6xHis; made in house; host or cells: E. coli BL21 (DE3)
Sequence (Q99836 148-296): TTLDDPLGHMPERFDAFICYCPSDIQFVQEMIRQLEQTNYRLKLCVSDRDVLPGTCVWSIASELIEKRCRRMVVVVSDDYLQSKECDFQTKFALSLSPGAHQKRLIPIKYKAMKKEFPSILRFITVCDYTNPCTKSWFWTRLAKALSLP
assay.summary: T‐Surf phage library (P8 and P3) selection against MyD88^TIR, four rounds, NGS read counts
Format: binding
details: P8 library, selection against MyD88 TIR; rank by count after grouping
// P8_MyD88 Rank (after) lookup, one value per entry

record.sequence | P8_MyD88 Rank (after)
WPEDYQDIGWFLDNLS | 202
WDFASSTWWLRELLQIA | 272
DPQDLEWFYERLVSRF | 266
ENYAFSSWALGELLHI | 192
DLQDLDWFYERLVSLL | 206
WEDVRINFLSHFLKEL | 253
DPQDLDLFYERLVRLF | 261
WSQPEFRAAMQAVLEL | 274
YELDFSHFWLFDGQAGGEA | 284
YSFLSHLAAAFELHGI | 285
DWVWDYLLPNLEGQR | 264
FHGDELRDNFIRYLVW | 252
SSTWALDELERILEYM | 198
DPQALDWLYERLVSLF | 203
FRGEDIADNFLSHLVVAL | 234
PQDLEWLYERLVRLIL | 287
DWVYNELIAHLENTEH | 204
NYASSPWALDELVKIF | 197
WVFQTLYSTLEDEYAF | 228
YASYDDNDYYWVTHVLLRFV | 215
DPHQHQAFWDRLWEKL | 286
YYDSRWALDELLQILHARELF | 232
DPQDLDWLYERLVRLF | 238
LAIIGLIGSILWALK | 210
DPQDLQWFCERLVSLF | 281
LKWGDERFWERLVYVM | 191
FDYELQQSLFHALIMR | 213
TYLWWVEDERGQEYFW | 221
LGYHWRDWEYFVGLED | 280
PRDLEWLYERLVSLIL | 278
DPQDLDWFYARLVRLF | 270
DSLFWDRLLYSLHVT | 219
WRDVLKYIANLSGWDS | 243
LGYHWIDWAYFVGIEE | 242
FFWMQLRSLLGTPGGL | 194
FIRYLVWGLRDERLNL | 208
DYASSSWYLDELVHILW | 262
ELDFSHFWLFDGDAGEEP | 229
QSAWALNQLLQIIDWH | 196
WKEALTYVSLLVGFPF | 224
WALIELRTIMELWSGN | 220
DPQALDWFYERLVRLF | 279
YLMWPQEEEEIPLFWH | 257
DPQALAWFYERLVSLF | 256
LGYHWIDWEYFVALK | 235
YASYDDFWDRLIRMIE | 248
DPMVAEWVLNHLRFEL | 193
YELDFSHFWLFDAGGDA | 265
WALSELVEILRARENM | 195
ELDFSHFWLFDGQSGKDA | 216
DPHDLVWFYERLVSLF | 230
DPQDLAWSYERLVSLF | 255
DPQDLEWFYERLGSLF | 247
DPQELDWYYERLVSLF | 241
DPQDLDWFYERLFTQM | 267
AFSHWALVELLEAIEQ | 226
LRYDDPWFWEKLVFAM | 237
WMRALAYIVNIVGESS | 268
YVDSPWALDELVKILQ | 207
AWIWGWREALVYIGGI | 254
ELDFSHFWLFDGQAT | 218
EWALHQLQQIIKWHQT | 212
DPQDREWFYERLVSLF | 277
DPQDLDWVYERLVSLI | 271
WALDELLKILYARELF | 222
WDFASNMAQFWDRRYY | 283
DPQDLDWFYERLFSQT | 269
LGYQWIEWEYFVGIED | 250
DPQDLDWFYERLLSR | 236
DPQDLALFYERLVSLF | 251
